Catalogue of Z score readings, one per entry.
# Test system: Plasmodium falciparum
# assay: Primary screen in NF54 nanoGlo assay, in single point, at 2uM, 72h; a lower Z score goes with more inhibition
# Type: functional, Erythrocyte
# testSettings: timepoint 72 hour
The campaign covered roughly 150,000 compounds. About 540 (0.36%) showed an effect of 50% or more. What follows is part of a selection rich in strong results, with near analogues and random picks from the rest.
Respond using a number only.

{"molecule": "Clc1ccc2[nH]c3c(c2c1)CCCC3NC1CCN(C2CCOC2)CC1 (stereo not given)", "reportedEndpoint": "Z score", "measuredResult": -16.55}
{"molecule": "OC1(c2ccc(Cl)cc2)CCN(C[C@@H]2CCCN3CCCC[C@H]23)CC1", "reportedEndpoint": "Z score", "measuredResult": -16.27}

Ask: Record request: Z score value, item Cn1cc(CNC[C@H](O)c2ccc(F)c(F)c2)c(-c2cc3ccccc3o2)n1
Result: -3.4

Ask: Note, next up: Cn1ncc(C(F)(F)F)c1CN[C@H]1CCCc2c1[nH]c1ccc(Cl)cc21
Result: 2.6

Ask: Then CNc1cc([C@H]2C[C@@H](NC3CC(C)(C)NC(C)(C)C3)C2)ncn1 ?
Result: -1.95

Ask: Now the same for Cc1cnccc1NCCNCc1cccc(OCCCCN2CCOCC2)c1
Result: -20.36
